- Test system: XF498
- protocol.notes: NCI tumour cell line growth inhibition, 48 h
Calls of active or inactive are those of the source. Cut-off read from the data, not from the text of the source: active = GI50 up to about 1.1 µM and inactive = higher.
Here, each record is paired with measured GI50 data.
property.label: GI50

molecule	reported
O=C(COC(=O)c1cccc2c(=O)c3ccccc3[nH]c12)Nc1ccc(C(=O)O)cc1	29.6 µM (inactive)
O=C(Nc1cc(Cl)c(Cl)cc1Cl)C(=O)C(C(=O)c1ccccc1)C1OC(=O)c2ccccc21 (stereo not given)	> 100 µM (inactive)
N#CC1(CCCCl)CCCCC1	> 100 µM (inactive)
COC(=O)C1=C(C(=O)OC)C2(CCCCCC2=O)OC1=O (stereo not given)	> 100 µM (inactive)
CCOC1=C2N=C(Cc3ccccc3F)N=C2C(=O)c2ccccc21	> 100 µM (inactive)
COc1ccc(O)c2c1C(=O)CCCC2=O	> 100 µM (inactive)
CC(=O)OCC1OC(OC2CC3C(C)(C)C(O)CC[C@]3(C)C3CCC45CC4(CC[C@H]5C(C)CC(O)C4OC4(C)C)[C@]23C)C(O)C(O)C1O (stereo not given in full)	4.13 µM (inactive)
CC(=O)Oc1ccc(C2COc3cc(OC(C)=O)c(OC(C)=O)cc3C2)cc1 (stereo not given)	12.2 µM (inactive)
CCSc1nc(N2CCCC2)s[s+]1.[O-][Cl+3]([O-])([O-])[O-]	31 µM (inactive)
O=C1C(Cl)=C(Cl)C(=O)N1c1ccc(F)cc1 [FLUOROIMIDE]	19.9 µM (inactive)
